TESTED_TARGET: EPHB1 (human) (UniProt P54762)
Sequence (P54762 whole entry, looked up): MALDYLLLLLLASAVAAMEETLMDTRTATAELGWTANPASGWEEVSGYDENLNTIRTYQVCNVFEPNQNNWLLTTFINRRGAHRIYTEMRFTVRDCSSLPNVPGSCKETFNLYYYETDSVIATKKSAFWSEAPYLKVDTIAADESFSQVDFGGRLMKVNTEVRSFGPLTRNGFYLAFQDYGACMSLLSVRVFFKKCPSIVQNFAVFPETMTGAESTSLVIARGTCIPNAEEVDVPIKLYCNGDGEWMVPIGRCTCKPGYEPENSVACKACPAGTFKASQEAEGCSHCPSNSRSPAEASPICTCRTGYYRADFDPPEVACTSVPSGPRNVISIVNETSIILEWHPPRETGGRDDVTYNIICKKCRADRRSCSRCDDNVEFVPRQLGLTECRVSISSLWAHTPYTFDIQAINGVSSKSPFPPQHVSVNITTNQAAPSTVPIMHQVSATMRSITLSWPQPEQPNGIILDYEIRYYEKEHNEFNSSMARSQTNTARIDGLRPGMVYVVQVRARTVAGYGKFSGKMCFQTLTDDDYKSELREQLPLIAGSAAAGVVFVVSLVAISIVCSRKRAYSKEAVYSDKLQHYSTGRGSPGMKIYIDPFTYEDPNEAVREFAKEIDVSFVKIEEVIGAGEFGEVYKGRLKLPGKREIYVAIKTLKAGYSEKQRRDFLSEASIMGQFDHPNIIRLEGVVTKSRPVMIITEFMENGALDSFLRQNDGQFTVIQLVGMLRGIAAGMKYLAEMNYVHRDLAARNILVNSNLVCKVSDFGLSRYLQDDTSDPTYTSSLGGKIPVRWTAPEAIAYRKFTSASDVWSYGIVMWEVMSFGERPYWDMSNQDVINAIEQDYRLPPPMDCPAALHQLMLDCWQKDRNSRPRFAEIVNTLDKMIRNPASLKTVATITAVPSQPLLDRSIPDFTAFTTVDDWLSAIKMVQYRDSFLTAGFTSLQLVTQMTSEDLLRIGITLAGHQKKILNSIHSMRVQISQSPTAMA
ASSAY: radiometric filter-binding kinase assay, Kinase HotSpot
CONDITION_CONTEXT: compound 0.5 µM; ATP 10 µM
READOUT_LABEL: residual activity (%)
Quick reminder: number only, in %, skip the unit.

Consider the molecule "O=C1NC(=O)/C(=C\c2ccc3nccnc3c2)S1" . State its measured residual activity.
93.4

Note down residual activity recorded for "O=C1Cc2c([nH]c3ccc(Br)cc23)-c2ccccc2N1"
93.5

Identify measured residual activity corresponding to "COc1cc2ncc(-c3ccccc3)nc2cc1OC"
92.8

###

TESTED_TARGET: RPS6KB1 (human) (UniProt P23443)
Sequence (P23443 whole entry, looked up): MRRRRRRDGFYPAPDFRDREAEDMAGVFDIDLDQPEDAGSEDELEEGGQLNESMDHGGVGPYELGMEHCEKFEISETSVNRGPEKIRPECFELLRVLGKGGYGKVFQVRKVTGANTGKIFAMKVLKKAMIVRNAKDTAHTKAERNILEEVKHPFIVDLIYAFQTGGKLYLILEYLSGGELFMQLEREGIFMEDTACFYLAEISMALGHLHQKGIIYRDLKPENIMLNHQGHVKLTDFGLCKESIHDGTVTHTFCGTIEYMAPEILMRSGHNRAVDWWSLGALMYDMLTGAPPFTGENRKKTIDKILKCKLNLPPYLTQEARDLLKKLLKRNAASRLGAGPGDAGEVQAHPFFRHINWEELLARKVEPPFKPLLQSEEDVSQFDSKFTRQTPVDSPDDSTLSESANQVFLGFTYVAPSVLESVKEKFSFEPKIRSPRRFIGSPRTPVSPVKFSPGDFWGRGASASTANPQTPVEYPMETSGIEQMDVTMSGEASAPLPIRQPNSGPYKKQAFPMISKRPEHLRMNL
ASSAY: radiometric filter-binding kinase assay, Kinase HotSpot
CONDITION_CONTEXT: compound 0.5 µM; ATP 10 µM
READOUT_LABEL: residual activity
Note to self: number, then unit, no commentary.

Quick one: give measured residual activity for "Nc1nccc(-c2c(-c3ccc(F)cc3)ncn2C2CCNCC2)n1"
98.2%

For the compound "O=C(Nc1cccc(Nc2cc(Nc3cccc(C(F)(F)F)c3)ncn2)c1)C1CC1" , give its measured residual activity value.
98%

Report residual activity, nothing else, for this compound: "O=C1NC(=O)C(c2c[nH]c3ccccc23)=C1c1c[nH]c2ccccc12"
75.6%

Kindly indicate its recorded residual activity. Item: "O=C1NC(=O)/C(=C\c2ccc3nccnc3c2)S1"
91.2%

Identify the reported residual activity for the following entry. "CCn1cnc2c(Nc3cccc(Cl)c3)nc(N[C@@H]3CCCC[C@@H]3N)nc21"
97.3%

Output measured residual activity for this item: "CCN(CC)CCCCN1c2ccccc2Oc2ccc(Cl)cc21"
97.7%

Tell us which residual activity value is on record for "O=C1NC(=O)C(c2cn(CCCO)c3ncccc23)=C1c1cnccn1"
90.2%

Report measured residual activity; entry is "COc1ccc(OC)c2c(=S)c3ccccc3[nH]c12"
99.4%

Entry "Nc1nnc2[nH]c3ccccc3nc1-2" needs its residual activity filled in; supply it.
99.8%

# return recorded residual activity for input "Cn1sc(=O)n(Cc2ccccc2)c1=O"
98%

State, in one line, measured residual activity of "O=C(CCCc1ccc(-c2ccccc2F)cc1)Nc1ccc(O)cc1"
102%

Annotate the compound "Cc1nc2cc3nc(-c4cccs4)cnc3cc2n1C" with its measured residual activity.
95%

Specify reported residual activity for the compound shown: "COc1ccc(CNC(=O)Nc2ncc([N+](=O)[O-])s2)cc1"
85.4%

Identify measured residual activity associated with "CN(C)C[C@H]1CCn2c(c(C3=C(c4cn(C)c5ccccc45)C(=O)NC3=O)c3ccccc32)C1"
20%

Please report the measured residual activity for "O=C1Cc2c([nH]c3ccc(Br)cc23)-c2ccccc2N1"
103%

Report residual activity for "Cn1nc2c3c(cccc31)C(=O)c1ccccc1-2"
96.3%

###

TESTED_TARGET: ITK (human) (UniProt Q08881)
Sequence (Q08881 whole entry, looked up): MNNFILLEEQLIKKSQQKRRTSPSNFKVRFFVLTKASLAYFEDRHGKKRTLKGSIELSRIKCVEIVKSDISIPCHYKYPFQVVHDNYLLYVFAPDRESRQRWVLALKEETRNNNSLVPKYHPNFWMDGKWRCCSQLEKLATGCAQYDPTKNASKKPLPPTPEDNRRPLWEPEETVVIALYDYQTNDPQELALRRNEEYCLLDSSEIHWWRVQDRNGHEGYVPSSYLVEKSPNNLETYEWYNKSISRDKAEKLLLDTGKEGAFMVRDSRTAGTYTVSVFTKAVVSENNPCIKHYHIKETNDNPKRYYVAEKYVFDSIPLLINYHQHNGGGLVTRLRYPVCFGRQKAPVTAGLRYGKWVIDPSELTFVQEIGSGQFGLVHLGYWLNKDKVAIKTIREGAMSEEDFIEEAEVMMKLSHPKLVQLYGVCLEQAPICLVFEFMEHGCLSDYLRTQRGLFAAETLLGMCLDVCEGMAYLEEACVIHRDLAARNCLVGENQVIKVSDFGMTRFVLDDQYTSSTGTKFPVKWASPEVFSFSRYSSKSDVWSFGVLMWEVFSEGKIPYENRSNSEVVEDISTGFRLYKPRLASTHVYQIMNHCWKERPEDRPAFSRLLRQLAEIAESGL
ASSAY: radiometric filter-binding kinase assay, Kinase HotSpot
CONDITION_CONTEXT: compound 0.5 µM; ATP 10 µM
So I've got a bunch of compounds here, and I need their residual activity values.
Number in %, nothing else.

Report residual activity for "O=C(Nc1cccc(Nc2cc(Nc3cccc(C(F)(F)F)c3)ncn2)c1)C1CC1"
97.2

Query residual activity for "Cn1sc(=O)n(Cc2ccccc2)c1=O"
93.2

Give a short answer stating reported residual activity for "COc1ccc(OC)c2c(=S)c3ccccc3[nH]c12" .
101

Return the recorded residual activity value; entry: "Oc1ccc(Nc2nc(-c3ccc(Cl)cc3)cs2)cc1"
95.4

Dear colleague, please send me the reported residual activity for "CN([C@@H](Cc1ccc(OS(=O)(=O)c2cccc3cnccc23)cc1)C(=O)N1CCN(c2ccccc2)CC1)S(=O)(=O)c1cccc2cnccc12" when you can.
99.4

###

TESTED_TARGET: MUSK (human)
ASSAY: radiometric filter-binding kinase assay, Kinase HotSpot
CONDITION_CONTEXT: compound 0.5 µM; ATP 10 µM
READOUT_LABEL: residual activity (%)
Expressed in %, but write only the number.

Report measured residual activity; entry is "Cc1nc2cc3nc(-c4cccs4)cnc3cc2n1C"
90.6

Answer with reported residual activity of "COc1cc2ncnc(N3CCN(C(=O)Nc4ccc(Oc5ccccc5)cc4)CC3)c2cc1OC"
87.4

Dear colleague, please send me the reported residual activity for "O=C1Cc2c([nH]c3ccc(Br)cc23)-c2ccccc2N1" when you can.
87.6

###

Give measured residual activity for each item. Keep answers brief.
TESTED_TARGET: NEK11 (human)
ASSAY: radiometric filter-binding kinase assay, Kinase HotSpot
CONDITION_CONTEXT: compound 0.5 µM; ATP 10 µM
Please state the figure in %; there is no need to write the unit.

Quickly give me recorded residual activity for "Cn1sc(=O)n(Cc2ccccc2)c1=O"
102

Fill in residual activity for record "O=C1NC(=O)/C(=C\c2ccc3nccnc3c2)S1"
111

State, in one line, measured residual activity of "COc1ccc(OC)c2c(=S)c3ccccc3[nH]c12"
130

Tell me residual activity reported for "Oc1ccc(Nc2nc(-c3ccc(Cl)cc3)cs2)cc1"
77.1

###

TESTED_TARGET: SRC (human) (UniProt P12931)
Sequence (P12931 whole entry, looked up): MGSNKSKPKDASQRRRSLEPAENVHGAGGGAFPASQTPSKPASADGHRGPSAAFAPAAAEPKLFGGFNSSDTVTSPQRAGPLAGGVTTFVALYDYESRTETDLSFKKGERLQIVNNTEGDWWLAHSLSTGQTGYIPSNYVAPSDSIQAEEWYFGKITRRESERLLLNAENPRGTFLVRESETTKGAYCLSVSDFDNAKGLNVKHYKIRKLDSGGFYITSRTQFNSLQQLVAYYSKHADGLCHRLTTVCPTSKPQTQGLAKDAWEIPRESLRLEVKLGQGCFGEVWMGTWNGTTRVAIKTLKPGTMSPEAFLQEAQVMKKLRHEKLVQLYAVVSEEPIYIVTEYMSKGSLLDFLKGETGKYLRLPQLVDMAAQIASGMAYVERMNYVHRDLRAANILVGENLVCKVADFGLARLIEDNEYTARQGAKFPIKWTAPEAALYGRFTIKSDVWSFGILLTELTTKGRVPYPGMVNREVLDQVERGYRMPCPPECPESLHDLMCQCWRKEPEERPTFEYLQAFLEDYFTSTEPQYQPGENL
ASSAY: radiometric filter-binding kinase assay, Kinase HotSpot
CONDITION_CONTEXT: compound 0.5 µM; ATP 10 µM
Record form. Attribute: residual activity. Fill in for each entry.
Report only the number, with the unit % understood.

Return residual activity for the following compound: "CN([C@@H](Cc1ccc(OS(=O)(=O)c2cccc3cnccc23)cc1)C(=O)N1CCN(c2ccccc2)CC1)S(=O)(=O)c1cccc2cnccc12"
91.3

Please report the measured residual activity for "Cn1nc2c3c(cccc31)C(=O)c1ccccc1-2"
90.7

Entry "COc1ccc(OC)c2c(=S)c3ccccc3[nH]c12" needs its residual activity filled in; supply it.
90.6

For the compound "O=C(O)/C=C/c1cc(Br)c(Br)c(Br)c1Br" , give its measured residual activity value.
88.8

Consider the compound "Cc1nc2cc3nc(-c4cccs4)cnc3cc2n1C" and give its recorded residual activity.
89.9

###

TESTED_TARGET: SRPK3 (human) (UniProt Q9UPE1)
Sequence (Q9UPE1 whole entry, looked up): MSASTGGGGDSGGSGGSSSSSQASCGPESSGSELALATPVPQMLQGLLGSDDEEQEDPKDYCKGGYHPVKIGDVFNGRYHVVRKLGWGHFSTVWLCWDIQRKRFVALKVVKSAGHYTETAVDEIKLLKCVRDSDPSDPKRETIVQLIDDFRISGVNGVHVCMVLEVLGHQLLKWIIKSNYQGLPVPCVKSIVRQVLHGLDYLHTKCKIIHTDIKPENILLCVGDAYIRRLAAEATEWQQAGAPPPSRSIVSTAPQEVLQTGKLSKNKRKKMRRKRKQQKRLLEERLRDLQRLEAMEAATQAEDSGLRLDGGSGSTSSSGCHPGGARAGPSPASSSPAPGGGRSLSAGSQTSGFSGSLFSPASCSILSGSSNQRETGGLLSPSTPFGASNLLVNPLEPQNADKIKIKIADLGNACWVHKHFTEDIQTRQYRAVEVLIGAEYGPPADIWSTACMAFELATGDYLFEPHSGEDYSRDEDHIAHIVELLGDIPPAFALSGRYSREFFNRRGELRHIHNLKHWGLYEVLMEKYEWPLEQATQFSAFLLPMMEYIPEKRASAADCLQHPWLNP
ASSAY: radiometric filter-binding kinase assay, Kinase HotSpot
CONDITION_CONTEXT: compound 0.5 µM; ATP 10 µM
READOUT_LABEL: residual activity
Answer with the figure and its unit, nothing else.

Let me know recorded residual activity for "O=C(O)/C=C/c1cc(Br)c(Br)c(Br)c1Br" , thanks.
66.9%

Please look at this compound and report its residual activity: "Cn1cnc2cc3c(Nc4cccc(Br)c4)ncnc3cc21"
94.9%

Look up residual activity of "CN([C@@H](Cc1ccc(OS(=O)(=O)c2cccc3cnccc23)cc1)C(=O)N1CCN(c2ccccc2)CC1)S(=O)(=O)c1cccc2cnccc12" and report it.
98%

Supply measured residual activity of "CN(C)C[C@H]1CCn2c(c(C3=C(c4cn(C)c5ccccc45)C(=O)NC3=O)c3ccccc32)C1" in your reply.
100%

Return residual activity (reported value) for this compound: "O=C1NC(=O)/C(=C\c2ccc3nccnc3c2)S1"
91.4%

Answer with reported residual activity of O=C1Nc2ccccc2/C1=C1/Nc2ccccc2/C1=N\OCCC(O)CO (centres undefined)
59.5%

Provide measured residual activity value, entry: "COc1ccc(OC)c2c(=S)c3ccccc3[nH]c12"
96.8%

Identify residual activity associated with the compound "COc1cc2ncnc(N3CCN(C(=O)Nc4ccc(Oc5ccccc5)cc4)CC3)c2cc1OC"
97.3%

Fill in residual activity for record "O=C(Nc1cccc(Nc2cc(Nc3cccc(C(F)(F)F)c3)ncn2)c1)C1CC1"
103%

Give the measured residual activity for "CCN(CC)CCCCN1c2ccccc2Oc2ccc(Cl)cc21"
104%

Given "O=C1NC(=O)C(c2c[nH]c3ccccc23)=C1c1c[nH]c2ccccc12" , respond with its residual activity.
90%

Output measured residual activity for this item: "COc1ccc(CNC(=O)Nc2ncc([N+](=O)[O-])s2)cc1"
100%

Retrieve residual activity measured for "O=C1NC(=O)C(c2cn(CCCO)c3ncccc23)=C1c1cnccn1" and print it.
91.2%

Input "O=C(CCCc1ccc(-c2ccccc2F)cc1)Nc1ccc(O)cc1" , output reported residual activity.
93.7%

###

TESTED_TARGET: RPS6KA6 KD1 KD2 (human)
ASSAY: radiometric filter-binding kinase assay, Kinase HotSpot
CONDITION_CONTEXT: compound 0.5 µM; ATP 10 µM
Please go through the items and note down their residual activity.
Answer with a number only, understood to be in %.

Output measured residual activity for this item: "Cn1nc2c3c(cccc31)C(=O)c1ccccc1-2"
90.4

Indicate the recorded residual activity value for this molecule: "Cc1nc2cc3nc(-c4cccs4)cnc3cc2n1C"
88.5

Respond only with residual activity recorded for "O=C1NC(=O)/C(=C\c2ccc3nccnc3c2)S1"
87.6

Supply measured residual activity of "Cn1cnc2cc3c(Nc4cccc(Br)c4)ncnc3cc21" in your reply.
92.5

Identify measured residual activity associated with "COc1cc2ncnc(N3CCN(C(=O)Nc4ccc(Oc5ccccc5)cc4)CC3)c2cc1OC"
92
